Origin of values: ChEMBL document CHEMBL1130133

biological target: DNA topoisomerase 1 (Homo sapiens) (UniProt P11387); assay: Topoisomerase I mediated DNA cleavage; format: functional
Sequence (P11387 whole entry): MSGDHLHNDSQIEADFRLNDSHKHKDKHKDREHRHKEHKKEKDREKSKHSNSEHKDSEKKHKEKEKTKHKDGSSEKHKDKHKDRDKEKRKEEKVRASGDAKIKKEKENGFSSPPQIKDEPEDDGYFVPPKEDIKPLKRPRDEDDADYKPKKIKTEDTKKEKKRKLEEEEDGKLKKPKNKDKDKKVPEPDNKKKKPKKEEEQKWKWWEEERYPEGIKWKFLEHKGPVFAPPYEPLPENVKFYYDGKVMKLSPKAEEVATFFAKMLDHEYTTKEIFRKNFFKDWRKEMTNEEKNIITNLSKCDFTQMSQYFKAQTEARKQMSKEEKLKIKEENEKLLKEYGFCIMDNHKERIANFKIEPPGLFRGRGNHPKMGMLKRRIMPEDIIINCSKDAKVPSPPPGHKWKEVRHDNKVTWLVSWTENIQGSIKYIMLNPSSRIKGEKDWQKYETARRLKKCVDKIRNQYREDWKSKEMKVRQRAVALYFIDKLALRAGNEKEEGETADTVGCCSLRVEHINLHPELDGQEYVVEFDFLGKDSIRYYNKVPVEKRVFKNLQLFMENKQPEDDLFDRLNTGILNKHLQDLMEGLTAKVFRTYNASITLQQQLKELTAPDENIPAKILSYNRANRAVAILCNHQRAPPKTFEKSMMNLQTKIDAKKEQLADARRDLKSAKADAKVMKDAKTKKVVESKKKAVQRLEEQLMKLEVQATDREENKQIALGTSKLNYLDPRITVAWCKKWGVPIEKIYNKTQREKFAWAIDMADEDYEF
Recorded REC for the following molecules
VALUE TYPE: REC

INSERT INTO assay_data (smiles_repr, measured_value) VALUES
  ('c1ccc(-c2ccc3[nH]c(-c4ccc5[nH]c(-c6ccc7[nH]c(-c8ccccc8)nc7c6)nc5c4)nc3c2)cc1', 20),
  ('c1ccc2c(c1)ccc1[nH]c(-c3ccc4[nH]c(-c5ccc6[nH]cnc6c5)nc4c3)nc12', 1),
  ('c1ccc(-c2ccc3[nH]c(-c4ccc5[nH]c(-c6ccc7[nH]cnc7c6)nc5c4)nc3c2)cc1', 1),
  ('c1ccc2cc(-c3ccc4[nH]c(-c5ccc6[nH]c(-c7ccc8[nH]cnc8c7)nc6c5)nc4c3)ccc2c1', 1),
  ('c1ccc2c(-c3ccc4[nH]c(-c5ccc6[nH]c(-c7ccc8[nH]cnc8c7)nc6c5)nc4c3)cccc2c1', 2),
  ('c1ccc2cc3[nH]c(-c4ccc5[nH]c(-c6ccc7[nH]cnc7c6)nc5c4)nc3cc2c1', '> 1000'),
  ('CC(C)c1nc2cc(-c3nc4cc(-c5nc6cc(-c7ccccc7)ccc6[nH]5)ccc4[nH]3)ccc2[nH]1', 0.05),
  ('COc1ccc(-c2ccc3[nH]c(-c4ccc5[nH]c(-c6ccc7[nH]cnc7c6)nc5c4)nc3c2)cc1', 0.5);

* * *

molecular target: DNA topoisomerase 1 (Homo sapiens); test: Topoisomerase I mediated DNA cleavage; format: functional
VALUE TYPE: REC

INSERT INTO results (smiles_repr, measured_value) VALUES
  ('Clc1ccc(-c2ccc3[nH]c(-c4ccc5[nH]c(-c6ccc7[nH]cnc7c6)nc5c4)nc3c2)cc1', 2),
  ('c1ccc(-c2cccc3[nH]c(-c4ccc5[nH]c(-c6ccc7[nH]cnc7c6)nc5c4)nc23)cc1', 5),
  ('COc1ccc(-c2nc3cc(-c4nc5cc(-c6nc7cc(-c8ccccc8)ccc7[nH]6)ccc5[nH]4)ccc3[nH]2)cc1', 20),
  ('CCCc1nc2cc(-c3nc4cc(-c5nc6cc(-c7ccccc7)ccc6[nH]5)ccc4[nH]3)ccc2[nH]1', 0.5),
  ('CCc1nc2cc(-c3nc4cc(-c5nc6cc(-c7ccccc7)ccc6[nH]5)ccc4[nH]3)ccc2[nH]1', 1),
  ('Cc1nc2cc(-c3nc4cc(-c5nc6cc(-c7ccccc7)ccc6[nH]5)ccc4[nH]3)ccc2[nH]1', 2);
